System: OVCAR-3 ovarian
Test: NCI-60 one-dose screen, 48 h
Conditions: 10 µM unless noted
The panel holds about 83,000 compounds, 20% with a hit somewhere; the sample as a whole holds those more often. Active and inactive are the calls of the source. Rule for the calls: active = growth percent below 10; inactive = the rest.
Possible outcomes: true (1) for active, false (0) for inactive

* Cn1c(=O)cc2c3c(c(NCCCO)ccc31)C(=O)c1ccccc1-2 | false (0)
* CCOC(=O)C#Cc1c(C(=O)OCC)nnn1Cc1ccc([N+](=O)[O-])cc1 | true (1)
* N#CC1=C(N)Oc2c(sc3c(Br)cccc23)C1c1ccc(Cl)cc1 (stereo not drawn) | true (1)
* Cc1nc2sc(C(=O)Nc3cccc4ccccc34)c(N)c2cc1C(O)c1ccccc1 (stereo not drawn) | true (1)
* O=C(CN1C(=O)S/C(=C\C(Cl)=C\c2ccccc2)C1=O)NCCc1ccc(O)cc1 | true (1)
* Cc1csc(Nc2nc(-c3ccccn3)nc(C(Cl)(Cl)Cl)n2)n1 | false (0)
* N#CC1=C(N)Oc2c(ccc3ccccc23)C1c1ccccc1 (stereo not drawn) | true (1)
* NC(=O)c1c(NC(=O)c2ccc3ccccc3c2)sc2c1CCC(=O)C2 | false (0)
* O=c1c2cnn(-c3ccccc3)c2n2c(CN3CCOCC3)nnc2n1-c1ccccc1 | false (0)
* Cc1[nH]c(C(=O)Nc2ccc(C(=O)N3CCN(c4cc5c(cc4F)c(=O)c(C(=O)O)cn5C4CC4)CC3)cc2OC(C)C)c(Cl)c1Cl | false (0)
* CCCCCC(/C=N\NC(=S)N/N=C/C(=C/c1ccccc1)CCCCC)=C\c1ccccc1 | false (0)
* COC1=CC(c2ccc[nH]2)=N/C1=C\c1[nH]c(C)c(C(=O)OC(C)C)c1C | true (1)
* Nc1nc(N)c(-c2ccc(Cl)c(Cl)c2)c(CBr)n1 | false (0)
* C=C(C)[C@@H]1CC[C@]2(C(=O)N3CCOCC3)CC[C@]3(C)[C@H](CC[C@@H]4[C@@]5(C)C/C(=C/c6ccncc6)C(=O)C(C)(C)[C@@H]5CC[C@]43C)[C@@H]12 | false (0)
* COc1cc2ncnc(Nc3ccc(S(=O)(=O)Nc4cc(C)on4)cc3)c2cc1OCCCN1CCN(c2ccc(F)cc2)CC1 | false (0)
* Cc1ccc(-c2nc(N3CCCNCC3)c3oc(-c4ccc(C)cc4)nc3n2)cc1 | true (1)
* CN(C)CCNC(=O)c1cc2c3cc(Cl)ccc3[nH]c2c2ncccc12 | true (1)
* C1CN(SSN2CCOCC2)CCO1 | true (1)
* N#Cc1c(-c2ccc(Cl)cc2)c(C#N)c2c(C#N)c(N)nn2c1N | false (0)
* Oc1c(Br)cc(Br)c2ccc(Cn3cc(-c4ccccc4C(F)(F)F)nn3)nc12 | false (0)
* CC(C)(Sc1cc(C(C)(C)C)c(O)c(C(C)(C)C)c1)Sc1cc(C(C)(C)C)c(OC(=O)CCCC(=O)O)c(C(C)(C)C)c1 | false (0)
* O=C(Nc1cccc(-c2ccc(Cl)c(C(F)(F)F)c2)c1)C1CCN(Cc2cccc3cccnc23)CC1 | true (1)
* COc1cc(C2CC(c3ccc(Nc4nc(Nc5ccc(Cl)cc5)nc(Nc5ccc(Cl)cc5)n4)cc3)=NN2C(C)=O)cc(OC)c1OC (stereo not drawn) | false (0)
* Cc1ccc(C(=O)c2ccc(CC(=O)N/N=C/c3ccccc3O)n2C)cc1 | false (0)
* O=C(Nn1c2c(sc1=NC1CC1)C(=O)c1ccccc1C2=O)c1cc2ccc1CCc1ccc(cc1)CC2 | true (1)
* Clc1cccc(Nc2ncnc3ccc(-c4cnc5[nH]ccc5c4)cc23)c1 | false (0)
* O=C(c1ccncc1)N1N=C(c2ccc(Cl)cc2)C[C@H]1c1cn(-c2ccccc2)nc1-c1ccccc1 | false (0)
* CCCCn1c(=O)[nH]c(N)c([C@@H]2c3c([nH]c(=O)n(CCCC)c3=O)Oc3ccc4ccccc4c32)c1=O | true (1)
* C=C1C(=O)O[C@H]2[C@H]1CC/C(Cn1cc(-c3ccccc3)nn1)=C\CC[C@@]1(C)O[C@@H]21 | true (1)
* C/C(Cc1ccc(Cl)cc1)=C(\c1ccc(O)cc1)c1ccc(Cl)cc1 | false (0)
* COC(=O)c1nc(-c2ccccc2)oc1S(=O)(=O)Cc1ccccc1 | false (0)
* CC(=O)c1c(C)nc(SCC(=O)Nc2cccc(O)c2)n1-c1ccc(Cl)cc1 | false (0)
* O=c1[nH]c(-c2ccccc2)nc2sc3cc(O)ccc3c12 | false (0)
* COC(=O)/C=C1/SC(=Nc2ccc(C(F)(F)F)cc2)N(CCc2c[nH]c3ccc(O)cc23)C1=O | true (1)
* Cc1cc(N2CCN(CC(=O)Nc3ccc4c(ccn4C)c3)CC2)nc(N2CCCCCC2)n1 | false (0)
* COc1ccccc1NC(=O)N=Nc1c(O)[nH]c2ccccc12 | false (0)
* COC(=O)c1cc(N=C2NC(=O)/C(=C/C=C/c3ccccc3)S2)ccc1O | false (0)
* CCn1cc(C(=O)NNC(=S)Nc2ccc(C)cc2)c(=O)c2ccc(C)nc21 | false (0)

* * *

Test system: MDA-MB-435 melanoma
Experiment: NCI-60 one-dose screen, 48 h (100 = growth as untreated, 0 = no growth, -100 = all killed)
Conditions: 10 µM unless noted
Compounds without any hit were thinned out: in the full panel of roughly 83,000, 20% have a hit.
Listed compounds paired with reported growth
measured-quantity: growth (%)

• Cc1cc(=O)n(C(=O)Nc2ccccc2Cl)c2cc(O)ccc12 = 104
• COc1ccc(Cc2cnc(NC(=O)c3cc(C)oc3C)s2)cc1 = 0.623
• C=C1C(=O)O[C@H]2[C@H]1CC/C(COC(=O)/C=C\C(=O)NCc1ccc(Cn3c(=O)sn(CCI)c3=O)cc1)=C\CC[C@@]1(C)O[C@@H]21 = 44.9
• Cc1[nH]c(C(=O)Nc2ccccc2OC2CCNCC2)c(Cl)c1Cl = -40.3
• COC(=O)c1nc(-c2ccccc2)oc1S(=O)(=O)Cc1ccccc1 = 100

* * *

Tested on: SNB-75 CNS
Experiment: NCI-60 one-dose screen, 48 h (100 = growth as untreated, 0 = no growth, -100 = all killed)
Details: 10 µM unless noted
Method: Growth inhibition of the SNB-75 human tumor cell line is measured as a screen for anti-cancer activity. Cells are grown in 96 well plates and exposed to the test compound for 48 hours. Compounds are tested at a single concentration, which is 10^-5 M for most compounds. The reported endpoint is percent growth (GI% or GIPRCNT), where numbers from 0 - 100% represent growth inhibition, and numbers from -100% - 0 represent cell death. For example, a value of 40 represents 60% growth inhibition. […]
This is part of a sample that, as a whole, favours compounds with a hit. Of some 83,000 tested, about 20% had one in any assay.
Consider the cut-off 20%. If the recorded growth is strictly smaller, the label is yes (1); if not, the label is no (0).

* Oc1c(I)cc(I)cc1CNCCN(Cc1ccccn1)Cc1ccccn1 | yes (1)
* COc1cc2ncnc(Nc3ccc(S(=O)(=O)Nc4cc(C)on4)cc3)c2cc1OCCCN1CCN(c2ccc(F)cc2)CC1 | no (0)
* Fc1cc2c(cc1Cl)N(c1ncnc3ccc(-c4ccc5n[nH]nc5c4)cc13)CC2 | no (0)
* CC(C)c1ccc(-n2c(=S)[nH]c3sc4cc(O)ccc4c3c2=O)cc1 | no (0)
* Cc1ccc2c(n1)C(=O)C(Br)=C(C1CCCC1)C2=O | no (0)
* CCCCC1=C(P(=O)(O)O)N[C@H](C(=O)O)CS1 | no (0)

* * *

Tested on: CCRF-CEM leukemia
Assay: NCI-60 one-dose screen, 48 h (100 = growth as untreated, 0 = no growth, -100 = all killed)
Conditions: 10 µM unless noted
This is part of a sample that, as a whole, favours compounds with a hit. Of some 83,000 tested, about 20% had one in any assay.
Kindly return true if reported growth is no lower than 40%; return false if it is lower.

- C/C(Cc1ccc(Cl)cc1)=C(\c1ccc(O)cc1)c1ccc(Cl)cc1: true
- COC(=O)/C=C1/SC(=Nc2cccc(OC)c2)N(CCc2c[nH]c3ccc(O)cc23)C1=O: false
- COc1ccccc1CNc1c2ccccc2nc2ccccc12: false
- COc1ccc(/C=N\Nc2nc(SCCC(C)C)nc(-c3ccc(OC)cc3)c2C#N)cc1: false
- NC(=O)c1ccc(-c2c3ccccc3cc3c2ccc2ccccc23)cc1: false

* * *

Listed compounds paired with reported growth
System: A498 renal
Assay: NCI-60 one-dose screen, 48 h (100 = growth as untreated, 0 = no growth, -100 = all killed)
Conditions: 10 µM unless noted
Compounds without any hit were thinned out: in the full panel of roughly 83,000, 20% have a hit.
measured-quantity: growth (%)

• CCCOC(=O)Nc1nc2ccc(SCC(C)C)cc2s1 = 40.8
• Nc1cnc(C(=O)NNc2nc3cc(F)ccc3n3cccc23)cn1 = 44.7
• CCCCCCCCCCC(CN(CC)CC)C(O)c1ccccc1 (stereo not given) = 56.4
• CS(=O)(=O)Nc1cc(-c2ccc3ncnc(Nc4ccc5c(cnn5Cc5ccc(F)cc5)c4)c3c2)cnc1Cl = -23.2
• NC(Cc1ccc(O)c([N+](=O)[O-])c1)C(=O)O (stereo not given) = 105
• O=C(Nc1ccc(Oc2cccc(F)c2)c(Cl)c1)c1cccnc1 = 4.16
• COc1ccc(-c2nn(-c3cccc(Cl)c3)cc2-c2cc(-c3ccc(Br)cc3)nc(N)n2)cc1 = 81.6
• COc1ccc(-c2ccc(-c3ccc(C(=N)N)cc3)s2)cc1Cl = 90.3
• CCOC(=O)c1cc2c(n1C)-c1nc(NC(C)=O)sc1CCC2 = 53.2
• C=C1C(=O)O[C@H]2[C@H]1CC/C(COC(=O)NCc1ccc(Cn3c(=O)sn(CCCCC)c3=O)cc1)=C\CC[C@@]1(C)O[C@@H]21 = 84.9
